The measured values listed here are drawn from patent US11420973B2.

# target.or.test.system: human TLR8 (Homo sapiens (Human))
# Sequence (Q9NR97 27-1041): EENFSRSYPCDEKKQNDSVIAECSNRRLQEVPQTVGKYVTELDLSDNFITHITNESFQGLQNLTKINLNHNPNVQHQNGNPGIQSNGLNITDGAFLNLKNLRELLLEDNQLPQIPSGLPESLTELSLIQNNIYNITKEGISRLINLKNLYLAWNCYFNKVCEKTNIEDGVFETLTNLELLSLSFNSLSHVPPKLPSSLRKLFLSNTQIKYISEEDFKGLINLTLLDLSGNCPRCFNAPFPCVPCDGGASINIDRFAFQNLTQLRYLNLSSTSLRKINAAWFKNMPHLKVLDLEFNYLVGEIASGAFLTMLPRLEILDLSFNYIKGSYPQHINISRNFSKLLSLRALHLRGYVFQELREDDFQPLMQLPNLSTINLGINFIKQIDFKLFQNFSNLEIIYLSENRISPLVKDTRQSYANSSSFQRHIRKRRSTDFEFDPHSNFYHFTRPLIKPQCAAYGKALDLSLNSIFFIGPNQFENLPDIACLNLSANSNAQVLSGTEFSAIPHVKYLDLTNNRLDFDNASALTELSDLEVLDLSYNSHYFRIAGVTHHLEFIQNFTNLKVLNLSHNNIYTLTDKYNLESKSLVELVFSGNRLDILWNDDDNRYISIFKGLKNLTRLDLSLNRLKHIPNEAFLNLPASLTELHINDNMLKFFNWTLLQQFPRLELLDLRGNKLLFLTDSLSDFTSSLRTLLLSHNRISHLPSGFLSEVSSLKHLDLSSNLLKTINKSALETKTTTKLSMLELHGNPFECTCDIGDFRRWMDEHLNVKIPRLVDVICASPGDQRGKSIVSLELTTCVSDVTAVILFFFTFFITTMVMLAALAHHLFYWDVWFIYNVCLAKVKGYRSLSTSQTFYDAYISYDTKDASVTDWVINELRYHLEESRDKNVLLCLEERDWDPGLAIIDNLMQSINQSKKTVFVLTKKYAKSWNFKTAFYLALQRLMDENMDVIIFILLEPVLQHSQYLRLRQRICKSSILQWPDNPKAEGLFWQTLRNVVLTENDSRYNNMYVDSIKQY
# assay.protocol: TLR8 inhibition reporter assay (HEK-Blue SEAP reporter, R848 stimulation);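 note: SEAP driven by IFN-β minimal promoter with NF-κB and AP-1 sites, 22 h incubation, compounds 0.05 nM–50 µM, inhibition scaled between agonist plus DMSO and reference inhibitor wells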
# condition.label: read-out: TLR8 IC50; HEK-Blue cells overexpressing human TLR8, R848 15.9 μM, SEAP reporter
pIC50: −log10 of the molar value.
assay.endpoint: pIC50

In the examples that follow, each entry is paired with its recorded pIC50.
[[record]]
compound = "Cc1cc(-c2[nH]c3ccc(C(C)(C)C(=O)NC4CCC5CNCC54)cc3c2C(C)C)ccn1 (stereo not drawn) [Example 146]"
assay_value = 6.91

[[record]]
compound = "CCc1c(-c2ccc(OC)c(OC)c2)[nH]c2ccc(C(=O)N3CC4CNCC4C3)cc12 (stereo not drawn)"
assay_value = 6.91

[[record]]
compound = "CCc1c(-c2ccc(OC)c(OC)c2)[nH]c2ccc(C(=O)NCc3ccc(N4CCNCC4)cc3)cc12"
assay_value = 7.22


(A) COc1ccc(-c2[nH]c3ccc(C(=O)N4CC5CN(CC(=O)N(C)C)CC5C4)cc3c2C(C)C)cc1OC (stereo not drawn)
(B) CCc1c(-c2ccc(OC)c(OC)c2)[nH]c2ccc(C(=O)N3CCN(CCO)CC3)cc12
Q: Given the listed records, identify the one among A and B with higher pIC50. Response format: the label of the selected entry.
Result: B
